- Test system: U251 CNS
- EXPERIMENT: NCI-60 one-dose screen, 48 h
- EXPERIMENTAL PARAMETERS: 10 µM
About 83,000 compounds went through this panel and 20% of them were active in at least one assay; those are over-represented in the sample as a whole. Active and inactive are the calls of the source. The calls were made as follows: active = growth percent below 10; inactive = the rest.
Permitted responses: active, inactive

INSERT INTO results (input_smiles, assigned_label) VALUES
  ('CCCCC/C=C/C(=O)CCc1ccc(O)c(OC)c1', 'inactive'),
  ('Cc1nc2ccccc2c(N)c1-c1cc(C)c2c(C)nc3ccccc3c2n1', 'active'),
  ('O=C(CSSCC(=O)c1ccc(Cl)cc1)c1ccc(Cl)cc1', 'inactive'),
  ('O=C(Nc1ccc(OS(=O)(=O)c2ccccc2)cc1)C12CC3CC(CC(C3)C1)C2', 'inactive'),
  ('C[C@@H]1C=C2C(=O)O[C@@H]3CC[C@H](C1)[C@]23O', 'inactive'),
  ('COc1ccc(-c2nc(-c3nc4cc(Cl)c(Cl)cc4[nH]3)c3ccccn23)cc1', 'inactive'),
  ('O=S(=O)(NCCCNc1nccc(-c2c(-c3ccc(F)cc3)nc3sccn23)n1)c1ccc2ccccc2c1', 'inactive'),
  ('O=C(Nc1cccc(-n2cc(-c3ccncc3)c(-c3ccc(O)c(Cl)c3)n2)c1)Nc1cccc(C(F)(F)F)c1', 'active'),
  ('C#Cc1ccc(-n2c(/C=C/c3ccc(Cl)c(F)c3)nc3ncccc3c2=O)cc1', 'active');

Q) Fill in: this test's call for COc1cc(-c2cc(C(=O)N3CCN(C(=O)c4ccccc4NCc4cccs4)CC3)nc3cc(-c4ccccc4)nn23)cc(OC)c1OC is ___
A) inactive

---

- Test system: SF-539 CNS
- EXPERIMENT: NCI-60 one-dose screen, 48 h
- EXPERIMENTAL PARAMETERS: 10 µM
Compounds without any hit were thinned out: in the full panel of roughly 83,000, 20% have a hit. Active and inactive are the calls of the source. Rule for the calls: active = growth percent below 10; inactive = the rest.
# valid calls are 1 = active, -1 = inactive; nothing else

INSERT INTO assay_data (compound, assigned_label) VALUES
  ('COc1ccccc1CNCCCN1C(=O)c2ccc3c4c(ccc(c24)C1=O)C(=O)N(CCCN)C3=O', 1);

Q) Dear colleague, could you share the recorded outcome for CCOC(=O)N1C/C(=C/c2ccc(F)cc2)C(=O)/C(=C/c2ccc(F)cc2)C1 when you have a moment?
A) 1

Q) Record lookup: outcome of this test for N#CCCN1C/C(=C/c2ccc(Br)cc2)C(=O)/C(=C/c2ccc(Br)cc2)C1 ?
A) 1

Q) # lookup: test call for Cc1cc(Nc2ccc(Cl)cc2)nc(NCCCNc2ccnc3cc(Cl)ccc23)n1
A) 1

Q) Hi team, can someone confirm the assay call for CCCCCCCCCCCCCCCC(=O)OC1[C@@H](OC(=O)CCCCCCCCCCCCCCC)[C@@H](C(=O)N[C@@H](CCCCN)C(=O)OC)O[C@H]1n1cnc2c(=O)[nH]c(NC(=O)C(C)C)nc21 (some centres undefined) ?
A) -1

Q) Which outcome was assigned to CCOCC(=O)C(C#N)c1ccc(Cl)c(Cl)c1 (centres undefined) in this test?
A) -1

Q) Recorded call for CCN1CCN(c2nc3ccccc3c3c(=O)c4ccccc4sc23)CC1 ?
A) -1

Q) Which outcome did this test record for the compound COc1cc2cc3c(nc2cc1OC)CCN3Cc1ccc(NC(=O)c2ccc(Cl)c(C(F)(F)F)c2)cc1 ?
A) -1

Q) What was the test verdict on COc1ccc(OC)c(/C=C/c2nnc(Nc3ccc(Cl)cc3)o2)c1 ?
A) -1
